- target: Shiga toxin 2 (Escherichia coli O157:H7) (UniProt P09385+P09386)
- protocol.notes: E. coli 0.157:H7 Shiga Toxin SOP - stx2 screening assay
- Format: functional
- Parameters: scale not given: direction of the effect not stated beside the values
- particulars: 30 µM
Criterion: Percent Effect strictly less than -10%. Met: yes (1). Not met: no (0).

- molecule: "NC[C@H]1[C@H]2CN(Cc3ccccc3)C[C@@H]12"
  class.label: "no (0)"
- molecule: "CC(C)n1ccnc1CN1CCCN(C(=O)c2cccnc2O)CC1"
  class.label: "yes (1)"
- molecule: "O=C(COc1ccc2c(c1)CCC2)N1CCOCC1c1ncon1 (centres undefined)"
  class.label: "no (0)"
- molecule: "Cn1cc(NC(=O)Cn2c(CS(C)(=O)=O)nc3ccccc32)cn1"
  class.label: "no (0)"
- molecule: "CCCS(=O)(=O)N1CCN(c2cc(-n3cnc(C)c3C)nc(C)n2)CC1"
  class.label: "yes (1)"
- molecule: "CC(C)NC(=O)[C@@H](NC(=O)N1CCN(c2ccc(Cl)cc2)CC1)C(C)C"
  class.label: "yes (1)"
- molecule: "CCCc1cc(=O)n(CC(N)=O)c(-n2nc(C)cc2C)n1"
  class.label: "no (0)"
- molecule: "CC(C)CCN1Cc2c(C(=O)O)ncn2-c2ccccc2S1(=O)=O"
  class.label: "yes (1)"
- molecule: "CC(C)c1n[nH]c(C2CN(C(=O)CCCn3cccn3)CCO2)n1 (centres undefined)"
  class.label: "yes (1)"

----------
- target: Shiga toxin 2 (Escherichia coli O157:H7) (UniProt P09385+P09386)
- protocol.notes: E. coli 0.157:H7 Shiga Toxin SOP - stx2 screening assay
- Format: functional
- Design: scale not given: direction of the effect not stated beside the values
- particulars: 30 µM
Here the recorded Percent Effect is given for each entry.
reported.metric: Percent Effect (%)

- compound: "CC(=O)NCC(=O)N1CCOC2(CCCN(c3cccnc3)C2)C1 (centres undefined)"
  reported.metric: "Percent Effect"
  meas.value: -31.3
- compound: "O=C(CCc1cc2n(n1)CCCN(Cc1ccccc1F)C2)NC1CC1"
  reported.metric: "Percent Effect"
  meas.value: -4.17
- compound: "Cn1nccc1-c1ccc2nc(C3CCN(CCO)CC3)nn2c1"
  reported.metric: "Percent Effect"
  meas.value: -15.6
- compound: "CC(O)CN1CCC(CNCc2cccc(C(N)=O)c2)CC1 (centres undefined)"
  reported.metric: "Percent Effect"
  meas.value: 12.7

----------
- target: Shiga toxin 2 (Escherichia coli O157:H7) (UniProt P09385+P09386)
- protocol.notes: E. coli 0.157:H7 Shiga Toxin SOP - stx2 screening assay
- Format: functional
- Design: scale not given: direction of the effect not stated beside the values
- particulars: 30 µM

- compound: "O=C(c1ccncc1F)N1CCN(CC2CC2)c2ncccc2C1"
  display.unit: "%"
  Percent Effect: -37.6
- compound: "CCn1cc(CN2CCCN(C(=O)Cc3ccc(C)nc3)CC2)cn1"
  display.unit: "%"
  Percent Effect: 1.69
- compound: "N#Cc1ccc(N2CCN(C(=O)c3cc(C4CC4)[nH]n3)CC2)c(F)c1"
  display.unit: "%"
  Percent Effect: -10.4
- compound: "CC(C)Cc1noc(CN(C)C(=O)C2COc3ccccc3C2)n1 (stereo not drawn)"
  display.unit: "%"
  Percent Effect: -46.4
- compound: "COc1ccc(-c2nnc(SC(C)C(=O)NCC(C)C)[nH]2)c(OC)c1 (stereo not drawn)"
  display.unit: "%"
  Percent Effect: 8.94
- compound: "CC(C(=O)N1CCN(c2ccccc2Cl)CC1)n1cncn1 (stereo not drawn)"
  display.unit: "%"
  Percent Effect: -19.8
- compound: "CS(=O)(=O)c1ccccc1C(=O)NCCCN1CCc2ccccc2C1"
  display.unit: "%"
  Percent Effect: -24.7
- compound: "COc1ccccc1CN1CC[C@H]2C[C@@H](C(=O)N3CCCC3)O[C@H]2C1"
  display.unit: "%"
  Percent Effect: -13.2
- compound: "Cc1n[nH]c2c1C(c1cnn(C)c1)SCC(=O)N2 (stereo not drawn)"
  display.unit: "%"
  Percent Effect: -3.86
- compound: "COc1ccc(OC)c(NC(=O)NCC(O)c2ccc(F)c(F)c2)c1 (stereo not drawn)"
  display.unit: "%"
  Percent Effect: -0.389
- compound: "CN(Cc1ccccc1)C1COC2(CCN(Cc3nccs3)CC2)C1 (stereo not drawn)"
  display.unit: "%"
  Percent Effect: -24.7
- compound: "CC1CCN(S(=O)(=O)c2cccn(CC(=O)NC3CCCC3)c2=O)CC1"
  display.unit: "%"
  Percent Effect: 1.09
- compound: "COc1ccc(C2CCCCCN2S(=O)(=O)N(C)C)cc1 (stereo not drawn)"
  display.unit: "%"
  Percent Effect: -9.69
- compound: "O=C(Nc1cccc(CN2CCOC2=O)c1)N1CCOCC1"
  display.unit: "%"
  Percent Effect: -57.1
- compound: "COC1CCN(C(=O)Cc2csc(-c3ncccn3)n2)CC1"
  display.unit: "%"
  Percent Effect: 12.8
- compound: "CCn1ccnc1CN1CCCC(CO)(Cc2cccc(Cl)c2)C1 (stereo not drawn)"
  display.unit: "%"
  Percent Effect: 15.9
- compound: "CCC(=O)NCCc1cc(N2CCN(C(C)=O)CC2)nc(C2CC2)n1"
  display.unit: "%"
  Percent Effect: -2.36
- compound: "Cn1ccnc1CN1CCC2(CC1)CC(Oc1cccnc1)C2"
  display.unit: "%"
  Percent Effect: -18.2
- compound: "N#CCSCCCN1CCCN(C(=O)c2ccccc2)CC1"
  display.unit: "%"
  Percent Effect: -31.2
- compound: "Cc1cccc(C(=O)NCc2ccc(N3CCCCC3)nc2)n1"
  display.unit: "%"
  Percent Effect: -10.8
- compound: "CN1CCOC(CNCCc2ccccn2)C1 (stereo not drawn)"
  display.unit: "%"
  Percent Effect: -10.7
- compound: "O=C(c1ccc(Cl)o1)N1CCCN(Cc2cscn2)CC1"
  display.unit: "%"
  Percent Effect: 6.75
- compound: "Cc1nnc(N2CCOC(Cn3cccn3)C2)c(C#N)c1C (stereo not drawn)"
  display.unit: "%"
  Percent Effect: 19.5
